These measurements were taken from patent US20180230200A1.

# test system: gH/gL/UL128/UL130/UL131A pentamer complex (PC) of HCMV strain TB40/E virus (human cytomegalovirus strain TB40/E)
# test: cell-based or functional assay
Measured IC50, neutralization of TB40/E infection of HUVEC, listed per entry for reference.
experimental endpoint: IC50, neutralization of TB40/E infection of HUVEC (ng/mL)

| binder | measured result |
| --- | --- |
| 13B5 (antibody, V domains shown, also called NAb 13B5; 1365) VH: QVTLKESGPGILKPSQTLSLTCSFSGFSLTTSGLGVGWIRQPSGKGLEWLAHIWWDDDKYFNPSLRNQLTISKDTSRNQVFLEITSVTTADTATYYCVRSLYDYDEGYYFDSWGQGTTLTVSS VL: EIVMIQSPATLSVNPGDRVSLSCRASQSISDYLHWYQQKSHESPRLLIKYASQSISGIPSRFSGSGSGSDFTLSINSVEPEDVGVYYCQNGHTFPPTFGGGTKLEIK | 12 |
| 12E2 (antibody, V domains shown, also called NAb 12E2) VH: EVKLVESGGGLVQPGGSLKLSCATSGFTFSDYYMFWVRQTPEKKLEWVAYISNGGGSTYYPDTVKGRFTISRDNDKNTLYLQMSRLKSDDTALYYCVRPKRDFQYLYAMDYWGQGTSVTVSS VL: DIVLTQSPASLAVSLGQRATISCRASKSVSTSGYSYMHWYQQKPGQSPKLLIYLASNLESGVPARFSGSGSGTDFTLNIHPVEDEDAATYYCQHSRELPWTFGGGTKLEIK | 6 |
| 1B2 (antibody, V domains shown, also called NAb 1B2) VH: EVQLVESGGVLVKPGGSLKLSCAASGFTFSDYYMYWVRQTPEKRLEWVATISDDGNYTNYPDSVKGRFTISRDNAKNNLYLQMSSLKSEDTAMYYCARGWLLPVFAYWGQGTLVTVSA VL: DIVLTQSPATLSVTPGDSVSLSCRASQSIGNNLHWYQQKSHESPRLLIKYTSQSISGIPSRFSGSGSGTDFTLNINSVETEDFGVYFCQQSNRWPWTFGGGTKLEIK | 0.5 |
